Taken from the supplement of paper PMC11061612.

tested on: SW626 (Colorectal Carcinoma); assay: combination Emax (second highest fraction inhibited in the dose matrix, 72 h); higher = more inhibition; extreme values may be limits of the assay
OBSERVATION_TYPE: combination Emax
One number for each entry.

Known results for compounds:
Cc1c2c(nn1C)CSCc1cc(n(C)n1)CSc1cc(c3ccccc3c1)OCCCc1c(C(=O)O)n(C)c3c-2c(Cl)ccc13 [AZD5991] + Cn1cnc2c(F)c(Nc3ccc(Br)cc3Cl)c(C(=O)NOCCO)cc21 [Selumetinib] (first compound max 1 µM, 7x7, partner max 3 µM)
0.528
COc1cccc2c1C(=O)c1c(O)c3c(c(O)c1C2=O)C[C@@](O)(C(=O)CO)C[C@@H]3O[C@H]1C[C@H](N)[C@H](O)[C@H](C)O1 [Doxorubicin] + Cc1cc2ncnn2cc1Nc1ncc2c(n1)n(C1CCOCC1)c(=O)n2C [AZD7648] (first compound max 1 µM, 7x7, partner max 10 µM)
0.419

// each compound listed below needs its combination Emax
1. Cc1c2c(nn1C)CSCc1cc(n(C)n1)CSc1cc(c3ccccc3c1)OCCCc1c(C(=O)O)n(C)c3c-2c(Cl)ccc13 [AZD5991] + C1CN(CCC1(C(=O)N[C@@H](CCO)C2=CC=C(C=C2)Cl)N)C3=NC=NC4=C3C=CN4 [Capivasertib] (first compound max 1 µM, 7x7, partner max 3 µM)
2. CC1(C)CCC(CN2CCN(c3ccc(C(=O)NS(=O)(=O)c4ccc(NCC5CCOCC5)c([N+](=O)[O-])c4)c(Oc4cnc5[nH]ccc5c4)c3)CC2)=C(c2ccc(Cl)cc2)C1 [Venetoclax] + CN(C)CCCOc1ccc(-c2ccc3ncc4c(c3c2)n(C2CCOCC2)c(=O)n4C)cn1 [AZD0156] (first compound max 1 µM, 7x7, partner max 1 µM)

Output:
0.25
0.111

// each compound listed below needs its combination Emax
1. Cc1cc2ncnn2cc1Nc1ncc2c(n1)n(C1CCOCC1)c(=O)n2C [AZD7648] + CCN(CCO)CCCOc1ccc2c(Nc3cc(CC(=O)Nc4cccc(F)c4)[nH]n3)ncnc2c1 [AZD2811] (first compound max 10 µM, 7x7, partner max 1 µM)
2. CCc1c2c(nc3ccc(O)cc13)-c1cc3c(c(=O)n1C2)COC(=O)[C@]3(O)CC [SN-38] + O=C(c1cc(Cc2n[nH]c(=O)c3ccccc23)ccc1F)N1CCN(C(=O)C2CC2)CC1 [Olaparib] (first compound max 0.3 µM, 7x7, partner max 10 µM)
3. Cc1cc2ncnn2cc1Nc1ncc2c(n1)n(C1CCOCC1)c(=O)n2C [AZD7648] + C[C@@H]1COCCN1C2=NC(=NC(=C2)C3(CC3)[S@](=N)(=O)C)C4=C5C=CNC5=NC=C4 [AZD6738] (first compound max 10 µM, 7x7, partner max 10 µM)
4. NC1(C(=O)N[C@@H](CCO)c2ccc(Cl)cc2)CCN(c2ncnc3[nH]ccc23)CC1 [Capivasertib] + CC(C)n1c(=O)n(C)c2cnc3cc(F)c(-c4ccc(OCCCN5CCCCC5)nc4)cc3c21 [AZD1390] (first compound max 10 µM, 7x7, partner max 0.3 µM)
5. CN(CCO)CC[C@H](CSc1ccccc1)Nc1ccc(S(=O)(=O)NC(=O)c2ccc(N3CCC([C@@H](O)c4ccccc4-c4ccc(Cl)cc4)CC3)cc2)cc1S(=O)(=O)C(F)(F)F [AZD4320] + CN(C)CCCOc1ccc(-c2ccc3ncc4c(c3c2)n(C2CCOCC2)c(=O)n4C)cn1 [AZD0156] (first compound max 1 µM, 7x7, partner max 1 µM)
6. Cn1cnc2c(F)c(Nc3ccc(Br)cc3Cl)c(C(=O)NOCCO)cc21 [Selumetinib] + CCN(CCO)CCCOc1ccc2c(Nc3cc(CC(=O)Nc4cccc(F)c4)[nH]n3)ncnc2c1 [AZD2811] (first compound max 10 µM, 7x7, partner max 1 µM)
7. COc1nnc2ccc(N3CCC(c4ccc(OCCN5CCN(C)C(=O)[C@H]5C)cc4)CC3)nn12 [AZD5153] + CCN(CCO)CCCOc1ccc2c(Nc3cc(CC(=O)Nc4cccc(F)c4)[nH]n3)ncnc2c1 [AZD2811] (first compound max 1 µM, 7x7, partner max 1 µM)

Output:
1: 0.25; 2: 0.559; 3: 0.619; 4: 0.273; 5: 0.573; 6: 0.624; 7: 0.735

// each compound listed below needs its combination Emax
1. COc1nnc2ccc(N3CCC(c4ccc(OCCN5CCN(C)C(=O)[C@H]5C)cc4)CC3)nn12 [AZD5153] + Cn1cnc2c(F)c(Nc3ccc(Br)cc3Cl)c(C(=O)NOCCO)cc21 [Selumetinib] (first compound max 1 µM, 7x7, partner max 10 µM)
2. Cc1c2c(nn1C)CSCc1cc(n(C)n1)CSc1cc(c3ccccc3c1)OCCCc1c(C(=O)O)n(C)c3c-2c(Cl)ccc13 [AZD5991] + CC1(C)CCC(CN2CCN(c3ccc(C(=O)NS(=O)(=O)c4ccc(NCC5CCOCC5)c([N+](=O)[O-])c4)c(Oc4cnc5[nH]ccc5c4)c3)CC2)=C(c2ccc(Cl)cc2)C1 [Venetoclax] (first compound max 1 µM, 7x7, partner max 1 µM)

Output:
0.881
0.205
